Task for the reader: assign each of the following variants its reported protein stability index.
B1: ZNF193 (parent)
chain: QKRYHCKECGKVFSQSAGLIQHQR

- Variants of: B1
- Method Notes: protein stability index of a GFP-peptide fusion (GPS, HEK-293T) (PSI 1-6); higher = more stable;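 note: lentivirally expressed fusions sorted by FACS into six bins by GFP to DsRed ratio, PSI derived from sequencing read proportions per bin multiplied by bin number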
- Condition Label: c terminus: a fixed tail appended
Just the number, please, no unit after it.

Qu. Field request: protein stability index | item: QKRYHCKECGKVPSQSAGLIQHQR
Ans. 2.39

Qu. I would be grateful if you could share the reported protein stability index for QKRYHCKECGKVFSQSIGLIQHQR .
Ans. 2.28

Qu. Which protein stability index value is on record for QKRYHCKECGKVFSQSAGLIQFQR ?
Ans. 2.66

Qu. I'd like to know its protein stability index. The variant in question is QKRYHCKECGPVFSQSAGLIQHQR
Ans. 2.12

Qu. # lookup: protein stability index of QKRYHCKECGKVFSQSTGLIQHQR
Ans. 2.46

Qu. Which protein stability index value is on record for QKRYHCKECGKVFSQSMGLIQHQR ?
Ans. 1.82

Qu. Name the reported protein stability index value associated with the variant QKRYHCKECGKVFSQSVGLIQHQR
Ans. 2.48

Qu. For the variant QKRYHCKECGKVFSQSAGLIQHYR , what protein stability index is on record?
Ans. 2.4

Qu. For QKRYHCKECGKVFSQSAGLIQHQM , what is its reported protein stability index?
Ans. 2.44

Qu. Using the record for QKRYHCKECGKIFSQSAGLIQHQR , report its protein stability index.
Ans. 2.76

Qu. I would be grateful if you could share the reported protein stability index for QKRYHCKECGKVFSQSAGLIPHQR .
Ans. 2.08

Qu. For the variant shown here, AKRYHCKECGKVFSQSAGLIQHQR , give the reported protein stability index.
Ans. 2.67

Qu. protein stability index for QKRYHCKECGKVFSMSAGLIQHQR ?
Ans. 2.06

Qu. For the variant shown here, QKRYHCKECGKVFSQSAGLRQHQR , give the reported protein stability index.
Ans. 3.5

Qu. # lookup: protein stability index of QKRYHCAECGKVFSQSAGLIQHQR
Ans. 2.95

Qu. Entry QKRYHCKEDGKVFSQSAGLIQHQR : reported protein stability index = ?
Ans. 3.97

Qu. Would you kindly share the measured protein stability index for QKRYHCKECGKVFSQSASLIQHQR ?
Ans. 2.22

Qu. Please give the measured protein stability index for this variant: QKRYHCKECLKVFSQSAGLIQHQR
Ans. 1.95

Qu. Query: protein stability index; subject: QKRYHCKECGKVFSQSAGLIQHQK
Ans. 3.65

Qu. What does the record list as protein stability index for QKRYHCKECGEVFSQSAGLIQHQR ?
Ans. 3.1

Qu. Entry QKRYHCKECSKVFSQSAGLIQHQR has what protein stability index?
Ans. 2.11

Qu. Given QKRYHCKECGLVFSQSAGLIQHQR , state its recorded protein stability index.
Ans. 2.47

Qu. Would you mind telling me what protein stability index value was observed for QKRYHCKECGKVFSQSAGLIQHCR ?
Ans. 2.81

Qu. Name the recorded protein stability index for QKRYHCKECGKVFSQSAGLIQHQF .
Ans. 2

Qu. Which protein stability index value belongs to QKRYHEKECGKVFSQSAGLIQHQR ?
Ans. 3.74

Qu. Look up protein stability index for this variant: QKRYHCKECGKVFSQSAGLSQHQR
Ans. 2.69

Qu. Fill in: protein stability index of QKMYHCKECGKVFSQSAGLIQHQR is ___
Ans. 3.23

Qu. Which measured protein stability index value corresponds to QKRYHCKECQKVFSQSAGLIQHQR ?
Ans. 2.29

Qu. Please report the recorded protein stability index for QKRYHCKECGKVFSNSAGLIQHQR .
Ans. 4.24

Qu. Consider the variant shown here: QKRYHCKECGKVFSHSAGLIQHQR What is its recorded protein stability index?
Ans. 2.91

Qu. Entry under review: QKRYYCKECGKVFSQSAGLIQHQR . Reported protein stability index?
Ans. 3.29

Qu. Entry under review: QKLYHCKECGKVFSQSAGLIQHQR . Reported protein stability index?
Ans. 3.58

Qu. Form field: reported protein stability index of QKRYHCKECGKVFSQSAGLIQHQH
Ans. 3.44

Qu. State the recorded protein stability index for this entry: QKRYHCIECGKVFSQSAGLIQHQR
Ans. 2.69

Qu. Given QKRYHCKECGKVFSQSAELIQHQR , state its recorded protein stability index.
Ans. 4.13

Qu. # query: protein stability index of entry QKRHHCKECGKVFSQSAGLIQHQR
Ans. 2.47

Qu. I'd like to know its protein stability index. The variant in question is QKRYHCKECGKVHSQSAGLIQHQR
Ans. 3.12

Qu. I have this variant here, KKRYHCKECGKVFSQSAGLIQHQR , and I need its recorded protein stability index.
Ans. 3.1

Qu. Please give the measured protein stability index for this variant: QKRYHCKECGKVFSQSAGLIQHMR
Ans. 3.13

Qu. Data request, read-out protein stability index, for QKRYHCKECGKSFSQSAGLIQHQR
Ans. 3.27

Qu. I would be grateful if you could share the reported protein stability index for EKRYHCKECGKVFSQSAGLIQHQR .
Ans. 3.7

Qu. Quick one: protein stability index for QKRYHCKECGFVFSQSAGLIQHQR ?
Ans. 1.82

Qu. Need protein stability index of QKTYHCKECGKVFSQSAGLIQHQR , thanks.
Ans. 3.59

Qu. For the variant shown here, QKRYECKECGKVFSQSAGLIQHQR , give the reported protein stability index.
Ans. 3.62

Qu. Name the reported protein stability index value associated with the variant QKRYHCKECGKVFSQSAGLICHQR
Ans. 3.06

Qu. I'd like to know its protein stability index. The variant in question is QKRYHCKECGKVFSQKAGLIQHQR
Ans. 3.53
